The origin of these recorded values is the Immune Epitope Database (IEDB).

biological target: HLA-A*29:02; assay: IEDB peptide-MHC binding, purified MHC/competitive/radioactivity; filed as Kd, often an IC50 or EC50 that approximates it; bounds were set here for any values at or beyond the usual limits of such assays; conditions: source organism: Mammarenavirus whitewaterense
measurement.name: Kd (nM)
Could you give me the number in nM? Just the number is fine.

biopolymer_sequence=YQPESQKFI target_system=HLA-A*29:02 measurement_name=Kd measurement_units=nM numeric_result=3390

Turning now to a further sequence:
Prompt: Note down Kd recorded for "AYTSSDDEI"
Completion: 1590

###

target: HLA-B*08:03; experiment: IEDB peptide-MHC binding, purified MHC/direct/fluorescence; filed as Kd, often an IC50 or EC50 that approximates it; bounds were set here for any values at or beyond the usual limits of such assays; details: source organism: Orthomarburgvirus marburgense
pKd: −log10 of the molar value.
measurement.name: pKd

Prompt: Note down pKd recorded for "SEINNLNLT"
Completion: ≤ 4.70

###

biological target: HLA-A*02:01; assay: IEDB peptide-MHC binding, purified MHC/competitive/radioactivity; bounds were set here for any values at or beyond the usual limits of such assays; details: source organism: Homo sapiens
Each entry below lists one item and its recorded pIC50 value.
Please note pIC50 is a logarithmic value: minus log10 of concentration in mol/L. Answer with that number alone.

biopolymer_sequence=RQASIELPSM measurement_name=pIC50 numeric_result=5.75

Turning now to a further sequence:
Prompt: Note down pIC50 recorded for "VLYRYGSFSV"
Completion: 7.88

###

biological target: HLA-A*11:01; experiment: IEDB peptide-MHC binding, purified MHC/competitive/radioactivity; filed as Kd, often an IC50 or EC50 that approximates it; bounds were set here for any values at or beyond the usual limits of such assays; details: source organism: Triticum aestivum
measurement.name: pKd
Please note pKd is a logarithmic value: minus log10 of concentration in mol/L. Answer with that number alone.

Prompt: Note down pKd recorded for "QQQQQQQQK"
Completion: 6.07

###

target: HLA-A*30:01; test: IEDB peptide-MHC binding, purified MHC/competitive/fluorescence; filed as Kd, often an IC50 or EC50 that approximates it; bounds were set here for any values at or beyond the usual limits of such assays; settings: source organism: Orthomarburgvirus marburgense
measurement.name: Kd (nM)
Could you give me the number in nM? Just the number is fine.

Prompt: Note down Kd recorded for "ALFHKVQSY"
Completion: 438

###

biological target: HLA-B*08:01; assay: IEDB peptide-MHC binding, purified MHC/competitive/fluorescence; filed as Kd, often an IC50 or EC50 that approximates it; bounds were set here for any values at or beyond the usual limits of such assays; conditions: source organism: Escherichia coli O139:H28 str. E24377A
Each entry below lists one item and its recorded pKd value.
Please note pKd is a logarithmic value: minus log10 of concentration in mol/L. Answer with that number alone.

biopolymer_sequence=DLLKPNYAL numeric_result=5.40

Turning now to a further sequence:
Prompt: Note down pKd recorded for "YALATQVEF"
Completion: 5.43

###

molecular target: HLA-B*39:01; assay: IEDB peptide-MHC binding, purified MHC/direct/fluorescence; filed as Kd, often an IC50 or EC50 that approximates it; bounds were set here for any values at or beyond the usual limits of such assays; conditions: source organism: Bacillus cereus H3081.97
measurement.name: Kd (nM)
Could you give me the number in nM? Just the number is fine.

Prompt: Note down Kd recorded for "TVIRFWHAM"
Completion: 50

###

biological target: HLA-B*83:01; test: IEDB peptide-MHC binding, purified MHC/competitive/fluorescence; filed as Kd, often an IC50 or EC50 that approximates it; bounds were set here for any values at or beyond the usual limits of such assays; settings: source organism: Toxoplasma gondii
pKd: −log10 of the molar value.
measurement.name: pKd

Prompt: Note down pKd recorded for "MTMLIKAFK"
Completion: ≤ 5.30

###

target: HLA-B*35:01; assay: IEDB peptide-MHC binding, purified MHC/competitive/fluorescence; filed as Kd, often an IC50 or EC50 that approximates it; bounds were set here for any values at or beyond the usual limits of such assays; settings: source organism: Escherichia coli O139:H28 str. E24377A
pKd: −log10 of the molar value.
measurement.name: pKd

Prompt: Note down pKd recorded for "YALATQVEF"
Completion: ≥ 10.00

###

Each entry below lists one item and its recorded pKd value.
molecular target: HLA-A*02:03; assay: IEDB peptide-MHC binding, purified MHC/competitive/radioactivity; filed as Kd, often an IC50 or EC50 that approximates it; bounds were set here for any values at or beyond the usual limits of such assays; settings: source organism: Dengue virus 4 Philippines/H241/1956
Please note pKd is a logarithmic value: minus log10 of concentration in mol/L. Answer with that number alone.

Solved entries:
biopolymer_sequence=TMWHVTRGSV numeric_result=7.61
biopolymer_sequence=TLCAIILGGL numeric_result=8.43
biopolymer_sequence=SLVMLLVHYA numeric_result=6.19

Turning now to a further sequence:
Prompt: Note down pKd recorded for "RLASAILNA"
Completion: 7.64

###

target: HLA-A*02:03; experiment: IEDB peptide-MHC binding, purified MHC/competitive/radioactivity; filed as Kd, often an IC50 or EC50 that approximates it; bounds were set here for any values at or beyond the usual limits of such assays; conditions: source organism: Vaccinia virus WR
measurement.name: log10 Kd (log10 of the value in µM)
In plain terms, each number is the log10 of measured Kd in µM.

Solved entries:
biopolymer_sequence=TLISSDGARV measurement_name="log10 Kd" numeric_result=-0.88
biopolymer_sequence=ETMYLTMKA measurement_name="log10 Kd" numeric_result=-0.03
biopolymer_sequence=FIISTLNKI measurement_name="log10 Kd" numeric_result=-3.38

Prompt: Note down log10 Kd recorded for "FVDTMSIYIA"
Completion: 0.38

Prompt: Note down log10 Kd recorded for "GTSVIRSNI"
Completion: -1.35

Prompt: Note down log10 Kd recorded for "PISDYSAEV"
Completion: -0.57

Prompt: Note down log10 Kd recorded for "VMPEKRNVV"
Completion: -1.64

Prompt: Note down log10 Kd recorded for "HLMSDNPKA"
Completion: -0.55

Prompt: Note down log10 Kd recorded for "LVQYRILPM"
Completion: 0.07

Prompt: Note down log10 Kd recorded for "RVTTELNIV"
Completion: -0.94

Prompt: Note down log10 Kd recorded for "AVIIMAINV"
Completion: 0.44

Prompt: Note down log10 Kd recorded for "RVTKRDESSI"
Completion: 1.03

Prompt: Note down log10 Kd recorded for "NACDKHNKT"
Completion: 0.97

Prompt: Note down log10 Kd recorded for "IVNTTYDFLA"
Completion: 0.92

Prompt: Note down log10 Kd recorded for "LITNTKSDNI"
Completion: 0.49

Prompt: Note down log10 Kd recorded for "VTLFIDRGSI"
Completion: 0.35

Prompt: Note down log10 Kd recorded for "VQTLISLNSM"
Completion: 0.76

###

molecular target: HLA-A*02:01; assay: IEDB peptide-MHC binding, purified MHC/direct/fluorescence; filed as Kd, often an IC50 or EC50 that approximates it; bounds were set here for any values at or beyond the usual limits of such assays; settings: source organism: Influenza A virus (A/equine/Massachussetts/213/2003(H3N8))
measurement.name: Kd

Prompt: Note down Kd recorded for "ILKGKFQTA"
Completion: ≥ 20 µM

###

molecular target: HLA-B*51:01; assay: IEDB peptide-MHC binding, purified MHC/competitive/radioactivity; filed as Kd, often an IC50 or EC50 that approximates it; bounds were set here for any values at or beyond the usual limits of such assays; settings: source organism: Vaccinia virus WR
measurement.name: pKd
Please note pKd is a logarithmic value: minus log10 of concentration in mol/L. Answer with that number alone.

Solved entries:
biopolymer_sequence=DPTFQLLNMI measurement_name=pKd numeric_result=5.30
biopolymer_sequence=ILMIFISSFL measurement_name=pKd numeric_result=5.31
biopolymer_sequence=LPSLIKTILA measurement_name=pKd numeric_result=4.96

Prompt: Note down pKd recorded for "VPDIKLDAVL"
Completion: 6.47

###

target: HLA-B*07:02; assay: IEDB peptide-MHC binding, purified MHC/direct/fluorescence; filed as Kd, often an IC50 or EC50 that approximates it; bounds were set here for any values at or beyond the usual limits of such assays; conditions: source organism: Haemophilus influenzae
pKd: −log10 of the molar value.
measurement.name: pKd

Prompt: Note down pKd recorded for "VYFSPWFFL"
Completion: ≤ 4.70

###

target: HLA-A*01:01; test: IEDB peptide-MHC binding, purified MHC/competitive/radioactivity; filed as Kd, often an IC50 or EC50 that approximates it; bounds were set here for any values at or beyond the usual limits of such assays; details: source organism: Lassa virus Josiah
Each entry below lists one item and its recorded Kd value.
Note: state the figure and append the unit.

biopolymer_sequence=SDAHKKNLY result="1120 nM"

Prompt: Report measured Kd on HLA-A*01:01; entry: "DCIMTSYQYL"
Completion: 3860 nM
